Reference source: patent US20180230166A1

Target: endogenous CETP from serum (Homo sapiens, UniProt P11597)
Construct: yielding a concentration of approximately 15 nM endogenous CETP in the assay; from tissue; host or cells: human serum (95% of the assay volume)
Sequence (P11597 18-493): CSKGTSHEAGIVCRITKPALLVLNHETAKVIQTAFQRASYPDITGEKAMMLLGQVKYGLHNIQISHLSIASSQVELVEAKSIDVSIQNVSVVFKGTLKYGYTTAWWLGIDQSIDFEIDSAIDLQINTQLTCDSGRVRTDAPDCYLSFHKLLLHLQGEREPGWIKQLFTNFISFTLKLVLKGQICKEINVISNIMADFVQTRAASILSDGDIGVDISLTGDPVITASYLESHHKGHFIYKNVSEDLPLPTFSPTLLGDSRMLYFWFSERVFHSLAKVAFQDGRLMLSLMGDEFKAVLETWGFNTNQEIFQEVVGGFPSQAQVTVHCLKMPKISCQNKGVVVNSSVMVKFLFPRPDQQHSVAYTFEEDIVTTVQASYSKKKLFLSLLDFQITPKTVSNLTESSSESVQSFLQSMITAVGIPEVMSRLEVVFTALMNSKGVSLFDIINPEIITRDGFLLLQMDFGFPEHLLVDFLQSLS
Test: RTA assay in 95% human serum (95% RTA), CETP-catalyzed CE and TG transfer
Assay type: biochemical
Details: RTA assay in 95% human serum; read-out: IC50
pIC50: −log10 of the molar value.

- SMILES REPRESENTATION: "COc1ncc(-c2c(C)cc(C(=O)O)cc2C)cc1-c1ccc(C(F)(F)F)cc1[C@@H]1CC[C@H]2[C@@H](c3ccnc(C(F)(F)F)c3)CC(=O)N12"
  pIC50: 5.54
- SMILES REPRESENTATION: "COc1ncc(-c2c(C)cc(C(=O)O)cc2C)cc1-c1ccc(C(F)(F)F)cc1[C@@H]1CC[C@H]2[C@@H](c3cc(F)cc(C(F)(F)F)c3)CC(=O)N12"
  pIC50: 6.48
- SMILES REPRESENTATION: "COc1ccc([C@H]2CC[C@H](C(=O)O)CC2)cc1-c1ccc(C(F)(F)F)cc1[C@@H]1CC[C@H]2[C@@H](c3cc(F)cc(C(F)(F)F)c3)SC(=O)N12"
  pIC50: 5.82
- SMILES REPRESENTATION: "COc1ccc(-c2ccc(C(=O)O)cc2C)cc1-c1ccc(C(F)(F)F)cc1[C@@H]1CC[C@H]2[C@@H](c3cc(F)cc(C(F)(F)F)c3)CC(=O)N12"
  pIC50: 5.33
- SMILES REPRESENTATION: "COc1ncc(-c2c(C)cc(C(=O)O)cc2C)cc1-c1ccc(C(F)(F)F)cc1[C@@H]1CC[C@H]2[C@@H](c3ccnc(C(F)(F)F)c3)SC(=O)N12"
  pIC50: 6.84
- SMILES REPRESENTATION: "COc1ccc(-c2ccc(C(=O)O)cc2C)cc1-c1ccc(C(F)(F)F)cc1[C@@H]1CC[C@H]2[C@@H](c3cc(F)cc(C(F)(F)F)c3)SC(=O)N12"
  pIC50: 6.03
